molecular target: PI3Kδ (p110δ/p85α) (Homo sapiens (Human)); assay: PI3Kδ Scintillation Proximity Assay; conditions: 20 μM PIP2, 20 μM ATP, 4 nM PI3Kδ, 210 min; read-out: PI3Kδ SPA IC50
Sequence (O00329 whole entry, species assumed): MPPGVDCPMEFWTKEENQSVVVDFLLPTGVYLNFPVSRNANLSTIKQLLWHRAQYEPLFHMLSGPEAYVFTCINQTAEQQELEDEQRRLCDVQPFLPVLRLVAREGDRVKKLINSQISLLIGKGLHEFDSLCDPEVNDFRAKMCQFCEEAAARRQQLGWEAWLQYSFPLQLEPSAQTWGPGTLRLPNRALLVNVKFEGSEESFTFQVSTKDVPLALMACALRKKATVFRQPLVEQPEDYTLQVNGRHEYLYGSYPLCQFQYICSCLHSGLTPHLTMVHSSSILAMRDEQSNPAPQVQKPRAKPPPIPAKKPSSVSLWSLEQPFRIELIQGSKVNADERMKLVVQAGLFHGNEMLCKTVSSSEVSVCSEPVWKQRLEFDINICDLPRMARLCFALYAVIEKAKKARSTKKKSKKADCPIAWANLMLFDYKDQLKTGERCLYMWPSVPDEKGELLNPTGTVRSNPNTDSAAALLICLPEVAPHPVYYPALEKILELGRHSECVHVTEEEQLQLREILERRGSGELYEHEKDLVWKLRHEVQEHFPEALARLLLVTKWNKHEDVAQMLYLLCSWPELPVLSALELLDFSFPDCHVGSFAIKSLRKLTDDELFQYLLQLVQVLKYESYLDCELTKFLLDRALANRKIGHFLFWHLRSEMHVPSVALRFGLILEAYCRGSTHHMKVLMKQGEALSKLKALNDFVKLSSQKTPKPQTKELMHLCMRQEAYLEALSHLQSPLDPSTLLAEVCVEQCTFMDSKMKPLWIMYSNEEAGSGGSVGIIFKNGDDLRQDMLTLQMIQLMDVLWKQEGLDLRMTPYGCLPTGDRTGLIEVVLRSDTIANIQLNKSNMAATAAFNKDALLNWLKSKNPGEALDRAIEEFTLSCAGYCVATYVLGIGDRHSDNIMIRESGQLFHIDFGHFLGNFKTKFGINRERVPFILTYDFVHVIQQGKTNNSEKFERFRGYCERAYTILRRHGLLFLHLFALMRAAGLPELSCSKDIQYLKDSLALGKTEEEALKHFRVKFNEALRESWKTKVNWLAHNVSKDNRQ
Sequence (P27986 whole entry partner, species assumed): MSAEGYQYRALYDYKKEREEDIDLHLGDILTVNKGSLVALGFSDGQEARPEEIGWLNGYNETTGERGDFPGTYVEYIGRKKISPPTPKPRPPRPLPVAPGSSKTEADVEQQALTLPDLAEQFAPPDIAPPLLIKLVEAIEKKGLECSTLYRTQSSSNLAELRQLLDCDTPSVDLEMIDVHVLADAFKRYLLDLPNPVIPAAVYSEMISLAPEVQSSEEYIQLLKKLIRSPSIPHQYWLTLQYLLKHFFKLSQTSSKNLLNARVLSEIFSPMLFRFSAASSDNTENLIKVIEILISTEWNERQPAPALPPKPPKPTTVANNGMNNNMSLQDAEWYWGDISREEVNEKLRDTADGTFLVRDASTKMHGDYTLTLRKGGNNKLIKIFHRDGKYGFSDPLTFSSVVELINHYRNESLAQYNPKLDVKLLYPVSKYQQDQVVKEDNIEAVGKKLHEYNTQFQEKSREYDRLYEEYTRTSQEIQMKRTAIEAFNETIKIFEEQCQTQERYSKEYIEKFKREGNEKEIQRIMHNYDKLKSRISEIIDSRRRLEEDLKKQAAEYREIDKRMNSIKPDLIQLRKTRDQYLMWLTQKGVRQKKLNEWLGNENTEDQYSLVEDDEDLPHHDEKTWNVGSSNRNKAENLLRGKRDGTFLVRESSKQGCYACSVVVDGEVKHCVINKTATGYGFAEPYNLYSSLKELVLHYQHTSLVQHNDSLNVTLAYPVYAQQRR
quantityName: IC50

[Q] Requested field: IC50. Item: COc1c(C(C)Nc2ncnc(N)c2C#N)cc(Cl)c(C)c1-c1cncc(C(=O)N2CCOCC2)c1 (stereo not shown)
[A] < 0.02 µM

[Q] Requested field: IC50. Item: COc1c(C(C)Nc2ncnc(N)c2C#N)cc(Cl)c(F)c1-c1cncc(C#N)c1 (stereo not shown)
[A] < 0.02 µM

[Q] Requested field: IC50. Item: COc1c(C(C)Nc2ncnc(N)c2C#N)cc(Cl)c(C)c1-c1cnc(N)nc1 (stereo not shown)
[A] < 0.02 µM

[Q] Requested field: IC50. Item: COc1c(C(C)Nc2ncnc(N)c2C#N)cc(Cl)c(Cl)c1-c1cncc(S(C)(=O)=O)c1 (stereo not shown)
[A] < 0.02 µM

[Q] Requested field: IC50. Item: COc1c(C(C)Nc2ncnc(N)c2C#N)cc(Cl)c(Cl)c1-c1cncc(F)c1 (stereo not shown)
[A] < 0.02 µM

[Q] Requested field: IC50. Item: COc1c(C(C)Nc2ncnc(N)c2C#N)cc(Cl)c(C)c1-c1ccc(S(C)(=O)=O)cc1 (stereo not shown)
[A] < 0.02 µM

[Q] Requested field: IC50. Item: COc1c(C(C)Nc2ncnc(N)c2C#N)cc(Cl)c(F)c1-c1cncc(S(C)(=O)=O)c1 (stereo not shown) [Example 8, bis(trifluoroacetate)]
[A] < 0.02 µM

[Q] Requested field: IC50. Item: COc1c(C(C)Nc2ncnc(N)c2C#N)cc(Cl)c(C)c1-c1cncc(C#N)c1 (stereo not shown)
[A] < 0.02 µM

[Q] Requested field: IC50. Item: COc1c(C(C)Nc2ncnc(N)c2C#N)cc(Cl)c(Cl)c1-c1ccc(S(C)(=O)=O)cc1 (stereo not shown)
[A] < 0.02 µM

[Q] Requested field: IC50. Item: COc1c(C(C)Nc2ncnc(N)c2C#N)cc(Cl)c(F)c1-c1ccc(S(C)(=O)=O)cc1 (stereo not shown)
[A] < 0.02 µM

[Q] Requested field: IC50. Item: COc1c(C(C)Nc2ncnc(N)c2C#N)cc(Cl)c(F)c1-c1cnc(N)nc1 (stereo not shown)
[A] < 0.02 µM

[Q] Requested field: IC50. Item: COc1c(C(C)Nc2ncnc(N)c2C#N)cc(Cl)c(Cl)c1-c1cnc(N)nc1 (stereo not shown)
[A] < 0.02 µM

[Q] Requested field: IC50. Item: COc1c(C(C)Nc2ncnc(N)c2C#N)cc(Cl)c(F)c1-c1cncc(F)c1 (stereo not shown)
[A] < 0.02 µM
